Tested on: 521955-158-R2-J5-PDC complex spheroid viability
Test: Anticancer human tumor 521955-158-R2-J5-PDC patient-derived pancreatic carcinoma cell line growth inhibition [GQUAD]
Conditions: second compound 10 µM; first compound 0.1 µM; hits give low values
I'd appreciate it if you marked entries satisfied when viability, T/C is lower than 70% and not satisfied when it is not.

These solved cases illustrate the format of a correct answer.
- compound: "CC1COCCN1c1cc(-c2ccnn2C)c2ccnc(-c3ccn[nH]3)c2n1 (stereo not given) + CN(C)c1ccc(Nc2c3ccc(NC(=O)CCN4CCCC4)cc3nc3cc(NC(=O)CCN4CCCC4)ccc23)cc1"
  label.value: "satisfied"
- compound: "CC1COCCN1c1cc(C2(S(C)(=N)=O)CC2)nc(-c2ccnc3[nH]ccc23)n1 (stereo not given) + Cc1[nH]c2ccc(F)cc2c1-c1nc2c3cccnc3c3ncccc3c2[nH]1"
  label.value: "not satisfied"

Lab note: next compound to report on.
Lookup: Does this compound meet the criterion viability, T/C < 70%? CC(C)n1c(=O)n(C)c2cnc3cc(F)c(-c4ccc(OCCCN5CCCCC5)nc4)cc3c21 + Cc1[nH]c2ccc(F)cc2c1-c1nc2c3cccnc3c3ncccc3c2[nH]1
Found: not satisfied

* * *

Test system: 521955-158-R2-J5-PDC complex spheroid viability
Assay: Anticancer human tumor 521955-158-R2-J5-PDC cell line growth inhibition [GQUAD];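 further: spheroids exposed to agents for one week before reading; 100% = DMSO vehicle control viability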
Conditions: second compound 0.316 µM; first compound 0.0316 µM; hits give low values
Excerpt: DNA G-quadruplex Stabilizer Agents in Combinations in Complex Spheroids A high-throughput screen of multi-cell type tumor spheroids was designed to identify active combinations of DNA G-quadruplex stabilizer agents and targeted small molecules. […] Compounds. […] If the clinical Cmax for an agent had not been determined, the highest concentration tested was 10 microM. […]
outcome.measure: viability, T/C (%)
Numbers only, in %.

Example cases with answers are listed next.
- compound: "Nc1ccn(C2OC(CO)C(O)C2(F)F)c(=O)n1 (stereo not given) + Cc1[nH]c2ccc(F)cc2c1-c1nc2c3cccnc3c3ncccc3c2[nH]1"
  viability, T/C [%]: 89
- compound: "C=CC(=O)N1CCN(c2nc(=O)n(-c3c(C)ccnc3C(C)C)c3nc(-c4c(O)cccc4F)c(F)cc23)C(C)C1 (stereo not given) + Cc1[nH]c2ccc(F)cc2c1-c1nc2c3cccnc3c3ncccc3c2[nH]1"
  viability, T/C [%]: 80.9
- compound: "CC(C)(O)C1CCC(Nc2ccc3ncc(-c4cccc(C(F)(F)F)c4)n3n2)CC1 (stereo not given) + Cc1[nH]c2ccc(F)cc2c1-c1nc2c3cccnc3c3ncccc3c2[nH]1"
  viability, T/C [%]: 107
- compound: "O=c1[nH]cc(F)c(=O)[nH]1 + Cc1cnc(CNC(=O)c2c(=O)c3ccc(N4CCCN(C)CC4)nc3n3c2sc2ccccc23)cn1"
  viability, T/C [%]: 36.7

Now look at this one.
Lookup: Request - read-out viability, T/C | tested on 521955-158-R2-J5-PDC complex spheroid viability | compound CC(=O)O[C@H]1C(=O)[C@@]2(C)[C@H]([C@H](OC(=O)c3ccccc3)[C@]3(O)C[C@H](OC(=O)[C@H](O)[C@@H](NC(=O)c4ccccc4)c4ccccc4)C(C)=C1C3(C)C)[C@]1(OC(C)=O)CO[C@@H]1C[C@@H]2O + Cc1cnc(CNC(=O)c2c(=O)c3ccc(N4CCCN(C)CC4)nc3n3c2sc2ccccc23)cn1
Found: 24.6
